Tested on: Pseudomonas aeruginosa
Assay: Antibacterial activity against Pseudomonas aeruginosa ATCC 27853 by CLSI-based broth dilution method
Assay type: functional
Answer each item with its documented MIC.
Numbers only, in µg/mL.

Previously resolved entries follow.
COc1ccc(-n2cc(COc3ccc(-c4nc5cc(C6=NCCN6)ccc5[nH]4)cc3)nn2)cc1: 8
N=C(N)c1ccc2[nH]c(-c3ccc(OCc4cn(-c5ccc(Cl)cc5)nn4)cc3)nc2c1: 16
COc1ccc(-n2cc(COc3ccc(-c4nc5cc(C(=N)N)ccc5[nH]4)cc3)nn2)cc1: 16
COc1ccc(-n2cc(COc3ccc(-c4nc5cc(C(=N)NC(C)C)ccc5[nH]4)cc3)nn2)cc1: 8
c1ccc(-n2cc(COc3ccc(-c4nc5cc(C6=NCCN6)ccc5[nH]4)cc3)nn2)cc1: 8

Dear reader, for each entry below, please note its MIC.
1. CC(C)NC(=N)c1ccc2[nH]c(-c3ccc(OCc4cn(Cc5ccccc5)nn4)cc3)nc2c1
2. Clc1ccc(-n2cc(COc3ccc(-c4nc5cc(C6=NCCN6)ccc5[nH]4)cc3)nn2)cc1
3. CC(C)NC(=N)c1ccc2[nH]c(-c3ccc(OCc4cn(-c5ccccc5)nn4)cc3)nc2c1
4. c1ccc(Cn2cc(COc3ccc(-c4nc5cc(C6=NCCN6)ccc5[nH]4)cc3)nn2)cc1

[8, 8, 8, 8]

----------
System: Staphylococcus aureus
Assay: Antibacterial activity against Staphylococcus aureus 209P JC1 incubated for 20 hrs by agar dilution method
Assay type: functional
Please respond with reported MIC for every item in the list.
Give bare numbers, in µg/mL.

O=C(O)c1cn(C2CC2)c2c(F)c(N3CCCCC3)c3nn[nH]c3c2c1=O: 0.05
CC1CCN(c2cc3c(c(=O)c(C(=O)O)cn3C3CC3)c3[nH]nnc23)CC1: 0.05
CC1CCN(c2c(Cl)c3c(c(=O)c(C(=O)O)cn3C3CC3)c3[nH]nnc23)CC1: 0.05
NCC1CCN(c2c(F)c3c(c(=O)c(C(=O)O)cn3C3CC3)c3[nH]nnc23)C1 (stereo not given): 0.05

Now take the following compound into account.
For `O=C(O)c1cn(C2CC2)c2cc(N3CCNCC3)c(F)cc2c1=O` , what is its reported MIC?
0.0063

----------
Tested on: Pseudomonas aeruginosa
Experiment: Antibacterial activity against Pseudomonas aeruginosa MTCC 2453 incubated overnight by broth dilution technique
Type: functional, organism-based
Assign IC50 to each entry below.
Please make sure the unit comes right after the number.

Past entries and their recorded results:
c1ccc(-n2cc(COc3cccc4cccnc34)nn2)cc1: 106 µg/mL
O=C(O)c1ccc(-n2cc(COc3cccc4cccnc34)nn2)cc1: 106 µg/mL
Cc1ccc(-n2cc(COc3cccc4cccnc34)nn2)cc1: 113 µg/mL
Oc1cccc2cccnc12 [OXYQUINOLINE]: 15.6 µg/mL
NS(=O)(=O)c1ccc(-n2cc(COc3cccc4cccnc34)nn2)cc1: 106 µg/mL

For every item below, please supply its IC50.
1. Clc1ccc(-n2cc(COc3cccc4cccnc34)nn2)cc1
2. O=[N+]([O-])c1ccc(-n2cc(COc3cccc4cccnc34)nn2)cc1
3. COc1ccc(-n2cc(COc3cccc4cccnc34)nn2)cc1
4. Fc1ccc(-n2cc(COc3cccc4cccnc34)nn2)cc1

1: 106 µg/mL; 2: 106 µg/mL; 3: 164 µg/mL; 4: 106 µg/mL

----------
Test system: KB
Assay: Cytotoxicity against human KB cells
Format: cell-based
Details: Homo sapiens, KB
Provide the recorded IC50 for the entries that follow.
Give bare numbers, in µg/mL.

Known results for compounds:
COc1ccc2ccc(-c3cn(C(C)(C)C(=O)N4CC[C@@H](C(=O)NC(C)(C)C(=O)N[C@@H](C)C(=O)NC(C)(C)C(=O)N[C@@H](C)C(=O)N[C@@H](CCC(N)=O)C(=O)NC(C)(C)C(=O)N[C@H](C(=O)NC(C)(C)C(=O)NCC(=O)N[C@@H](CC(C)C)C(=O)NC(C)(C)C(=O)N5CCC[C@@H]5C(=O)N[C@H](C(=O)NC(C)(C)C(=O)NC(C)(C)C(=O)N[C@@H](CCC(N)=O)C(=O)N[C@@H](CCC(N)=O)C(=O)N[C@H](CO)Cc5ccccc5)C(C)C)C(C)C)C4)nn3)cc2c1: 2.9
CC(=O)C(C)(C)C(=O)N1CC[C@@H](C(=O)NC(C)(C)C(=O)N[C@@H](C)C(=O)NC(C)(C)C(=O)N[C@@H](C)C(=O)N[C@@H](CCC(N)=O)C(=O)NC(C)(C)C(=O)N[C@H](C(=O)NC(C)(C)C(=O)NCC(=O)N[C@@H](CC(C)C)C(=O)NC(C)(C)C(=O)N2CCC[C@@H]2C(=O)N[C@H](C(=O)NC(C)(C)C(=O)NC(C)(C)C(=O)N[C@@H](CCC(N)=O)C(=O)N[C@@H](CCC(N)=O)C(=O)N[C@H](CO)Cc2ccccc2)C(C)C)C(C)C)C1: 1.56
CC(C)C[C@H](NC(=O)CNC(=O)C(C)(C)NC(=O)[C@@H](NC(=O)C(C)(C)NC(=O)[C@H](CCC(N)=O)NC(=O)[C@H](C)NC(=O)C(C)(C)NC(=O)[C@H](C)NC(=O)C(C)(C)NC(=O)[C@@H]1CCN(C(=O)C(C)(C)n2cc(-c3cc4ccccc4c4ccccc34)nn2)C1)C(C)C)C(=O)NC(C)(C)C(=O)N1CCC[C@@H]1C(=O)N[C@H](C(=O)NC(C)(C)C(=O)NC(C)(C)C(=O)N[C@@H](CCC(N)=O)C(=O)N[C@@H](CCC(N)=O)C(=O)N[C@H](CO)Cc1ccccc1)C(C)C: 2.9
CC(C)C[C@H](NC(=O)CNC(=O)C(C)(C)NC(=O)[C@@H](NC(=O)C(C)(C)NC(=O)[C@H](CCC(N)=O)NC(=O)[C@H](C)NC(=O)C(C)(C)NC(=O)[C@H](C)NC(=O)C(C)(C)NC(=O)[C@@H]1CCN(C(=O)C(C)(C)n2cc(-c3ccc4ccc5cccc6ccc3c4c56)nn2)C1)C(C)C)C(=O)NC(C)(C)C(=O)N1CCC[C@@H]1C(=O)N[C@H](C(=O)NC(C)(C)C(=O)NC(C)(C)C(=O)N[C@@H](CCC(N)=O)C(=O)N[C@@H](CCC(N)=O)C(=O)N[C@H](CO)Cc1ccccc1)C(C)C: 2.9

API: the following record is the query input.
# input compound: `CC(C)C[C@H](NC(=O)CNC(=O)C(C)(C)NC(=O)[C@@H](NC(=O)C(C)(C)NC(=O)[C@H](CCC(N)=O)NC(=O)[C@H](C)NC(=O)C(C)(C)NC(=O)[C@H](C)NC(=O)C(C)(C)NC(=O)[C@@H]1CCN(C(=O)C(C)(C)n2cc(-c3cccc(C(F)(F)F)c3)nn2)C1)C(C)C)C(=O)NC(C)(C)C(=O)N1CCC[C@@H]1C(=O)N[C@H](C(=O)NC(C)(C)C(=O)NC(C)(C)C(=O)N[C@@H](CCC(N)=O)C(=O)N[C@@H](CCC(N)=O)C(=O)N[C@H](CO)Cc1ccccc1)C(C)C` ; wanted: its IC50
2.9

----------
Tested on: Enterococcus faecalis
Assay: Antibacterial activity against Enterococcus faecalis MTCC 439 incubated overnight by broth dilution technique
Type: functional, organism-based
Assign IC50 to each entry below.
One number for each entry, in mg/L.

Some compounds with known IC50 results, for comparison:
O=[N+]([O-])c1ccc(-n2cc(COc3cccc4cccnc34)nn2)cc1: 106
NS(=O)(=O)c1ccc(-n2cc(COc3cccc4cccnc34)nn2)cc1: 106
c1ccc(-n2cc(COc3cccc4cccnc34)nn2)cc1: 106

Hello, I would appreciate it if you could give IC50 for each entry below.
1. COc1ccc(-n2cc(COc3cccc4cccnc34)nn2)cc1
2. Clc1ccc(-n2cc(COc3cccc4cccnc34)nn2)cc1
3. Oc1cccc2cccnc12

164
106
15.6

Give IC50 for each listed item.
1. Cc1ccc(-n2cc(COc3cccc4cccnc34)nn2)cc1
2. Fc1ccc(-n2cc(COc3cccc4cccnc34)nn2)cc1

[113, 106]

// IC50 lookup, key: `O=C(O)c1ccc(-n2cc(COc3cccc4cccnc34)nn2)cc1`
106

----------
Hi there, I'd appreciate the recorded MIC for every entry that follows.
Test system: Micrococcus luteus
Assay: Antibacterial activity against Micrococcus Luteus ATCC 398 incubated for 24 hrs
Format: functional
Answers are plain numbers, in mg/L.

O=C(N[C@H](CO)[C@H](O)c1ccc([N+](=O)[O-])cc1)C(Cl)Cl [CHLORAMPHENICOL]: 2
CC1(C)S[C@@H]2[C@H](NC(=O)[C@H](N)c3ccccc3)C(=O)N2[C@H]1C(=O)O [AMPICILLIN]: 2
Cc1cc(OCc2cn(Cc3cccc(Cl)c3)nn2)cc2oc(=O)ccc12: 2
Cc1cc(OCc2cn(Cc3ccc(Br)cc3)nn2)cc2oc(=O)ccc12: 2

// moving on: another record for MIC
Entry under review: `Cc1cc(OCc2cn(Cc3ccccc3)nn2)cc2oc(=O)ccc12` . Reported MIC?
2
